Data provenance is patent US10597390B2.

Experiment: in vitro
Conditions: dog, TOX MDCK CC50
Labelling field: enter 1 if recorded CC50 at 3 days is less than 5 µM. Enter 0 if it equals or exceeds that cut-off.

Example cases with answers are listed next.
CC(C)(c1cccs1)C(CC(=O)O)Nc1nc(-c2c[nH]c3c(F)cc(F)cc23)ncc1F (stereo not drawn) [Compound 230] ... 1
Cn1cc(C(=O)N[C@@H]2CCC[C@H](Nc3nc(-c4c[nH]c5c(F)cc(Cl)cc45)ncc3F)C2)nn1 [Compound 67] ... 1
Cn1ncc(C(=O)N[C@@H]2CCC[C@H](Nc3nc(-c4c[nH]c5c(F)cc(F)cc45)ncc3F)C2)c1N [Compound 156] ... 0
CC(C)(C)[C@H](CC(=O)O)Nc1nc(-c2c[nH]c3c(F)cc(F)cc23)ncc1F [Compound 186] ... 1
Cn1ncnc1C(=O)N[C@@H]1CCC[C@H](Nc2nc(-c3c[nH]c4c(F)cc(Cl)cc34)ncc2F)C1 [Compound 75] ... 0

Continue with the next compound.
Determine whether this compound shows CC50 at 3 days lower than 5 µM (ties excluded): Cn1[nH]c(=O)cc1C(=O)N[C@@H]1CCC[C@H](Nc2nc(-c3c[nH]c4c(F)cc(F)cc34)ncc2F)C1 [Compound 160]
0
